- target entity: HLA-B*58:01
- assay text: IEDB peptide-MHC binding, purified MHC/direct/fluorescence; filed as Kd, often an IC50 or EC50 that approximates it; bounds were set here for any values at or beyond the usual limits of such assays
- measurement setup: source organism: Camelpox virus CMS
measurement kind: Kd

• MPAYIRNTL = ≥ 20 µM

###

- target entity: HLA-A*03:01
- assay text: IEDB peptide-MHC binding, purified MHC/direct/fluorescence; filed as Kd, often an IC50 or EC50 that approximates it; bounds were set here for any values at or beyond the usual limits of such assays
- measurement setup: source organism: Influenza A virus (A/Puerto Rico/8/34/Mount Sinai(H1N1))
measurement kind: Kd (nM)

* ALTLNTMTK | 724
